assay: Solubility of ACP in surfactant solutions; assay type: physicochemical; conditions: aqueous surfactant solution (poloxamer 188), aqueous with cosolvent or surfactant or cyclodextrin, Poloxamer 188 (P188) 0.15 % w/v; read-out: ACP solubility
VALUE_TYPE: solubility (ng/mL)
Your answer is read as ng/mL, so omit the unit and give the number.

Complete the entry with solubility for CC#CC(=O)N1CCC[C@H]1c1nc(-c2ccc(C(=O)Nc3ccccn3)cc2)c2c(N)nccn12 [ACP, Acalabrutinib]
7.5

###

assay: Solubility of ACP in surfactant solutions; assay type: physicochemical; settings: aqueous surfactant solution (polyvinyl alcohol), aqueous with cosolvent or surfactant or cyclodextrin, Polyvinyl Alcohol (PVA) 0.15 % w/v; read-out: ACP solubility
VALUE_TYPE: solubility
Put down the number, then write its unit next to it.

Complete the entry with solubility for CC#CC(=O)N1CCC[C@H]1c1nc(-c2ccc(C(=O)Nc3ccccn3)cc2)c2c(N)nccn12
0.0137 µg/mL

###

experiment: Solubility of ACP in surfactant solutions; type: physicochemical; settings: aqueous surfactant solution (poloxamer 188), aqueous with cosolvent or surfactant or cyclodextrin, 1% w/v solution of P188; read-out: solubility of ACP
VALUE_TYPE: solubility

Complete the entry with solubility for CC#CC(=O)N1CCC[C@H]1c1nc(-c2ccc(C(=O)Nc3ccccn3)cc2)c2c(N)nccn12
< 0.1 µg/mL

###

test: Solubility of ACP in surfactant solutions; type: physicochemical; settings: aqueous surfactant solution (Gelucire 44/14), aqueous with cosolvent or surfactant or cyclodextrin, Gelucire 44/14 0.15 % w/v; read-out: ACP solubility
VALUE_TYPE: solubility (µg/mL)
Your answer is read as µg/mL, so omit the unit and give the number.

Complete the entry with solubility for CC#CC(=O)N1CCC[C@H]1c1nc(-c2ccc(C(=O)Nc3ccccn3)cc2)c2c(N)nccn12
1.36

###

assay: Saturation solubility of ACP in buffers with 0.5% w/v SDS; format: physicochemical; details: buffer systems with 0.5% w/v SDS; pH 4.5; 6.8; and 7.4 in the presence of 0.5% w/v SDS
VALUE_TYPE: solubility

Complete the entry with solubility for CC#CC(=O)N1CCC[C@H]1c1nc(-c2ccc(C(=O)Nc3ccccn3)cc2)c2c(N)nccn12
≥ 770 µg/mL

###

assay: Solubility of ACP in surfactant solutions; assay type: physicochemical; settings: aqueous surfactant solution (Gelucire 48/16), aqueous with cosolvent or surfactant or cyclodextrin, Gelucire 48/16 0.15 % w/v; read-out: ACP solubility
VALUE_TYPE: solubility

Complete the entry with solubility for CC#CC(=O)N1CCC[C@H]1c1nc(-c2ccc(C(=O)Nc3ccccn3)cc2)c2c(N)nccn12
1.18 µg/mL

###

Assay: Solubility of ACP in surfactant solutions
Assay type: physicochemical
Conditions: aqueous surfactant solution (PVP K30), aqueous with cosolvent or surfactant or cyclodextrin, Polyvinyl Pyrrolidone (PVP)- K30 0.15 % w/v; read-out: ACP solubility
Description: Surfactants are primarily chosen on the basis of two criteria: firstly, the affinity of ACP towards the aqueous solution in the presence of the surfactant; and secondly, their capacity to form a stable emulsion when the solid lipid is combined with the aqueous phase. […]
VALUE_TYPE: solubility (µg/mL)
Your answer is read as µg/mL, so omit the unit and give the number.

Complete the entry with solubility for CC#CC(=O)N1CCC[C@H]1c1nc(-c2ccc(C(=O)Nc3ccccn3)cc2)c2c(N)nccn12 [ACP, Acalabrutinib]
0.748
